target: Androgen receptor (Homo sapiens, UniProt P10275, T878A); experiment: Activation of T877A androgen receptor of human prostate cancer LNCap cells in reporter gene assay; format: functional, cell-based
Sequence (P10275 whole entry T878A): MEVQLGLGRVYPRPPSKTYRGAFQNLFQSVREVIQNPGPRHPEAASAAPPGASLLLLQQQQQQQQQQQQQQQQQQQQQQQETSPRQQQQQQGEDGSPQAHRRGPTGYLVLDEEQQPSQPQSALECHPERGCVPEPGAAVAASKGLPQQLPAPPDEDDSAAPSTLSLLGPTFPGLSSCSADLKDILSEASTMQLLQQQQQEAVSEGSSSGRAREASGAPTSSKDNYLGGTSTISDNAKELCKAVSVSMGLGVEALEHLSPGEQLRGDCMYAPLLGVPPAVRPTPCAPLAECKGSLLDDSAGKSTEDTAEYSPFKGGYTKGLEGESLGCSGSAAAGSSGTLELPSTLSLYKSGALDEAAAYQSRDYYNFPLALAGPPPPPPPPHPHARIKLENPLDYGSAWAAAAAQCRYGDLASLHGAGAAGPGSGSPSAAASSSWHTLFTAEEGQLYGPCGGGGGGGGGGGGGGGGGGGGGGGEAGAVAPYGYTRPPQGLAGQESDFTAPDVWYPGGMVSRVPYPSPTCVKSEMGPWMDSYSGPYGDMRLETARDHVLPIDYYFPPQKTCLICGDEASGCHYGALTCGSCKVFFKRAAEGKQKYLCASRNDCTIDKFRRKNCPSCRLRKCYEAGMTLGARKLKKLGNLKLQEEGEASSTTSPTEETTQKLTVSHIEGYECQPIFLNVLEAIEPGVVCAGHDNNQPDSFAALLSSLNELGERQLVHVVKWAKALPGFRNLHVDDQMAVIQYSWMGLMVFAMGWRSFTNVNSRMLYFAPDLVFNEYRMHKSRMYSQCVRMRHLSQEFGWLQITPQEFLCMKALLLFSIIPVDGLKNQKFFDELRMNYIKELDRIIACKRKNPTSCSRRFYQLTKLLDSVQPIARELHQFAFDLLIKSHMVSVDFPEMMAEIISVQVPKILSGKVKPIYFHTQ
metric-name: Agonist activity (qualitative)

Solved entries (count: 4):
- compound: "O=C1[C@@H]2C3CCC(C3)[C@@H]2C(=O)N1c1ccc([N+](=O)[O-])c(C(F)(F)F)c1 (stereo in doubt; 15)"
  experimental-target: "Androgen receptor (Homo sapiens, UniProt P10275, T878A)"
  metric-name: "Agonist activity (qualitative)"
  reported-measurement: "Agonist"
- compound: "O=C1[C@@H]2C3C=CC(C3)[C@@H]2C(=O)N1c1ccc([N+](=O)[O-])c(C(F)(F)F)c1"
  experimental-target: "Androgen receptor (Homo sapiens, UniProt P10275, T878A)"
  metric-name: "Agonist activity (qualitative)"
  reported-measurement: "Agonist"
- compound: "O=C1[C@@H]2C3C=CC(C3)[C@@H]2C(=O)N1c1ccc(Br)c(C(F)(F)F)c1"
  experimental-target: "Androgen receptor (Homo sapiens, UniProt P10275, T878A)"
  metric-name: "Agonist activity (qualitative)"
  reported-measurement: "Agonist"
- compound: "Cc1cc(N2C(=O)[C@@H]3C4C=CC(C4)[C@@H]3C2=O)ccc1Br"
  experimental-target: "Androgen receptor (Homo sapiens, UniProt P10275, T878A)"
  metric-name: "Agonist activity (qualitative)"
  reported-measurement: "Agonist"

Continue with the compound presented below.
The compound listed as O=C1[C@@H]2C3C=CC(C3)[C@@H]2C(=O)N1c1ccc([N+](=O)[O-])c2ccccc12 has a reported Agonist activity (qualitative) of Agonist

====

biological target: Androgen receptor (Homo sapiens, UniProt P10275, T878A); assay: Inhibition of [3H]-DHT binding to T877A androgen receptor of LNCaP cells
# label = Y if Ki < 10 nM else N

Please review the following examples before continuing.
- compound: "O=C1[C@@H]2C3C=CC(C3)[C@@H]2C(=O)N1c1ccc2cccnc2c1"
  experimental-target: "Androgen receptor (Homo sapiens, UniProt P10275, T878A)"
  category: "N"
- compound: "O=C1[C@@H]2C3CCC(C3)[C@@H]2C(=O)N1c1ccc2ccccc2c1"
  experimental-target: "Androgen receptor (Homo sapiens, UniProt P10275, T878A)"
  category: "N"
- compound: "Cc1cc(N2C(=O)[C@@H]3C4C=CC(C4)[C@@H]3C2=O)ccc1Br"
  experimental-target: "Androgen receptor (Homo sapiens, UniProt P10275, T878A)"
  category: "Y"
- compound: "O=C1[C@@H]2C3C=CC(C3)[C@@H]2C(=O)N1c1ccc([N+](=O)[O-])c(C(F)(F)F)c1"
  experimental-target: "Androgen receptor (Homo sapiens, UniProt P10275, T878A)"
  category: "Y"
- compound: "O=C1[C@@H]2C3CCC(C3)[C@@H]2C(=O)N1c1ccc([N+](=O)[O-])c(C(F)(F)F)c1 (stereo in doubt; 15)"
  experimental-target: "Androgen receptor (Homo sapiens, UniProt P10275, T878A)"
  category: "Y"

Strictly below 10 nM in Ki? O=C1[C@@H]2C3C=CC(C3)[C@@H]2C(=O)N1c1cccc(C(F)(F)F)c1
Y

Below 10 nM on Ki? Entry O=C1[C@@H]2C3CCC(C3)[C@@H]2C(=O)N1c1cccc(C(F)(F)F)c1 (stereo in doubt; 12)
Y

Decide: Ki of O=C1[C@@H]2C3C=CC(C3)[C@@H]2C(=O)N1c1ccc2ccccc2c1 strictly below 10 nM?
N

Check if Ki falls below 10 nM for O=C1[C@@H]2C3C=CC(C3)[C@@H]2C(=O)N1c1ccc(Br)c(C(F)(F)F)c1 .
Y
